Values were extracted from patent US20210292330A1.

Exercise: state measured CAF (10 minutes/60 minutes) at 10 micromolar: 60 minutes for each of the compounds provided.
- Target Or System: KRAS 4B G12C protein (Homo sapiens, UniProt P01116, G12C)
- Construct: This protein contained 188 amino acids in total, including an N-terminal 6-Histidine tag; made in house; host or cells: E. coli BL21
- Measurement Protocol: In vitro covalent adduct formation (CAF) assay by LC-MS
- Type: binding
- Condition Details: 60 minutes; compound 10 μM, protein 5 μM, 22° C.; percentage of protein bound by the compound

Take a look at these entries with their results.
| Compound | Observed Value |
| --- | --- |
| C=C(F)C(=O)N1CCN(c2nc(OC[C@@H]3CCCN3C)nc3c2CN(Cc2c(Cl)ccc(O)c2C)C3)C[C@@H]1CC#N | 95% |
| C=C(F)C(=O)N1CCN(c2nc(OC[C@@H]3CCCN3C)nc3c2CN(Cc2cc(NC)ncc2Cl)C3)C[C@@H]1CC#N | 7% |
| C=CC(=O)N1CCN(c2nc(Oc3cccc4c3CCN(C)C4)nc3c2CN(C2CCc4ccccc42)C3)C[C@@H]1CC#N (stereo partly shown) | 29% |

// switching to the query compound
State CAF (10 minutes/60 minutes) at 10 micromolar: 60 minutes (KRAS 4B G12C protein (Homo sapiens, UniProt P01116, G12C)) of C=C(F)C(=O)N1CCN(c2nc(OCc3cncn3C)nc3c2CN(C2CCc4ccccc42)C3)C[C@@H]1CC#N (stereo partly shown) . 0%/ 0%

----------
- Target Or System: KRAS 4B G12C protein (Homo sapiens, UniProt P01116, G12C)
- Construct: This protein contained 188 amino acids in total, including an N-terminal 6-Histidine tag; made in house; host or cells: E. coli BL21
- Measurement Protocol: In vitro covalent adduct formation (CAF) assay by LC-MS
- Format: binding
- Condition Details: 60 minutes; compound 10 μM, protein 5 μM, 22° C.; percentage of protein bound by the compound
Exercise: state measured CAF (10 minutes/60 minutes) at 10 micromolar: 60 minutes for each of the compounds provided.
Give bare numbers, in %.

| Compound | Observed Value |
| --- | --- |
| C=C(F)C(=O)N1CCN(c2nc(OC[C@@H]3CCCN3C)nc3c2CN(Cc2cc(O)c(C)cc2C)C3)C[C@@H]1CC#N [1-327] | 3 |

List reported CAF (10 minutes/60 minutes) at 10 micromolar: 60 minutes for each of these compounds:
1. C=CC(=O)N1CCN(c2nc(OC[C@@H]3CCCN3C)nc3c2CN(c2cccc4cccc(C)c24)C3)C[C@@H]1CC#N [1-17]
2. C=CC(=O)N1CCN(c2nc(OC[C@@H]3C[C@H](F)CN3C)nc3c2CN(C2CCc4ccccc42)C3)C[C@@H]1CC#N (stereo partly shown) [1-128]
3. C=CC(=O)N1CC2CCC1CN2c1nc(OC[C@@H]2CCCN2C)nc2c1CN(Cc1cc(O)ccc1Cl)C2 (stereo partly shown) [1-160]
4. C=CC(=O)N1CCN(c2nc(OC[C@@H]3CCCN3C)nc3c2CN(Cc2cnccc2Cl)C3)C[C@@H]1CC#N [1-119]
5. C=C(F)C(=O)N1CCN(c2nc(OC[C@@H]3CCCN3C)nc3c2CN(C2CCc4cccc(Cl)c42)C3)C[C@@H]1CC#N (stereo partly shown) [1-154]

[99, 63, 67, 94, 82]

----------
- Target Or System: KRAS 4B G12C protein (Homo sapiens, UniProt P01116, G12C)
- Construct: This protein contained 188 amino acids in total, including an N-terminal 6-Histidine tag; made in house; host or cells: E. coli BL21
- Measurement Protocol: In vitro covalent adduct formation (CAF) assay by LC-MS
- Assay type: binding
- Condition Details: 10 minutes; compound 10 μM, protein 5 μM, 22° C.; percentage of protein bound by the compound
Exercise: state measured CAF (10 minutes/60 minutes) at 10 micromolar: 10 minutes for each of the compounds provided.
Give bare numbers, in %.

Take a look at these entries with their results.
| Compound | Observed Value |
| --- | --- |
| C=CC(=O)N1CCN(c2nc(OC[C@@H]3CCCN3C)nc3c2CN(c2cccc4cccc(C)c24)C3)[C@@H](C)C1 | 0 |
| C=CC(=O)N1CCN(c2nc(OC[C@@H]3CCCN3C)nc3c2CN(Cc2cc(O)c(Cl)cc2C)C3)C[C@@H]1CC#N | 32 |
| C=CC(=O)N1CCN(c2nc(OC[C@@H]3CCCN3C)nc3c2CN(Cc2c(Cl)cccc2OC)C3)C[C@@H]1CO | 0 |
| C=CC(=O)N1CCN(c2nc(OC[C@@H]3CCCN3C)nc3c2CN(C(C)c2cc(F)ccc2C)C3)C[C@@H]1CC#N (some centres unmarked) | 61 |
| C=CC(=O)N1CCN(c2nc(OC3CC3)nc3c2CN(C2CCc4ccccc42)C3)C[C@@H]1CC#N (some centres unmarked) | 2 |

List reported CAF (10 minutes/60 minutes) at 10 micromolar: 10 minutes for each of these compounds:
1. C=CC(=O)N1CCN(c2nc(OC[C@@H]3CCCN3C)nc3c2CN(Cc2cccc4[nH]ncc24)C3)C[C@@H]1CC#N
2. C=CC(=O)N1CCN(c2nc(OC[C@@H]3CCCN3C)nc3c2CN(Cc2ccccc2F)C3)C[C@@H]1CC#N
3. C=CC(=O)N1CCN(c2nc(OC[C@@H]3CCCN3C)nc3c2CN(Cc2cc(OC)ccc2F)C3)C[C@@H]1CC#N
4. C=C(F)C(=O)N1CCN(c2nc(OC[C@@H]3CCCN3C)nc3c2CN(C2CCc4cccc(Cl)c42)C3)C[C@@H]1CC#N (some centres unmarked) [1-154]
5. C=CC(=O)N1CCN(c2nc(OC[C@@H]3CCC(=O)N3C)nc3c2CN(C2CCc4ccccc42)C3)C[C@@H]1CC#N (some centres unmarked)

84
89
51
52
21

List reported CAF (10 minutes/60 minutes) at 10 micromolar: 10 minutes for each of these compounds:
1. C=CC(=O)N1CCN(c2nc(OC[C@@H]3CCCN3C)nc3c2CN(C2CCc4ccccc42)C3)C[C@@H]1CC(F)(F)F (some centres unmarked)
2. C=CC(=O)N1CCN(c2nc(OC[C@@H]3CCCN3C)nc3c2CN(C2CCc4ccccc42)C3)[C@H](C#N)C1 (some centres unmarked)
3. C=CC(=O)N1CCN(c2nc(OC[C@@H]3CCCN3C)nc3c2CN(Cc2cc(O)ccc2F)C3)[C@@H](C)C1
4. C=CC(=O)N1CCN(c2nc(OC[C@@H]3CCCN3C)nc3c2CN(C2CCCc4ccccc42)C3)C[C@@H]1CC#N (stereo partly drawn) [1-52 (2nd isomer)]
5. C=C(F)C(=O)N1CCN(c2nc(OC[C@@H]3CCCN3C)nc3c2CN(Cc2cc(O)ccc2C(C)C)C3)C[C@@H]1CC#N
6. C=CC(=O)N1CC2CCC1CN2c1nc(OC[C@@H]2CCCN2C)nc2c1CN(Cc1cc(O)ccc1Cl)C2 (some centres unmarked)
7. C=C(F)C(=O)N1CCN(c2nc(OC[C@@H]3CCCN3C)nc3c2CN(C2CCc4ccccc42)C3)C[C@@H]1CC#N (some centres unmarked) [1-138]
8. C=CC(=O)N1CCN(c2nc(OC[C@@H]3CCCN3C)nc3c2CN(C2CCc4ccccc42)C3)C[C@@H]1Cn1ccnn1 (some centres unmarked)

1: 0; 2: 11; 3: 53; 4: 76; 5: 95; 6: 34; 7: 38; 8: 0

----------
- Target Or System: KRAS 4B G12C protein (Homo sapiens, UniProt P01116, G12C)
- Construct: This protein contained 188 amino acids in total, including an N-terminal 6-Histidine tag; made in house; host or cells: E. coli BL21
- Measurement Protocol: In vitro covalent adduct formation (CAF) assay by LC-MS
- Type: binding
- Condition Details: 10 minutes; compound 10 μM, protein 5 μM, 22° C.; percentage of protein bound by the compound
Exercise: state measured CAF (10 minutes/60 minutes) at 10 micromolar: 10 minutes for each of the molecules provided.

Take a look at these entries with their results.
| Molecule | Target Or System | Observed Value |
| --- | --- | --- |
| C=C(F)C(=O)N1CCN(c2nc(OC[C@@H]3CCCN3C)nc3c2CN(Cc2c(C)cc(C)c(O)c2C)C3)C[C@@H]1CC#N | KRAS 4B G12C protein (Homo sapiens, UniProt P01116, G12C) | 0% |
| C=CC(=O)N1CCN(c2nc(OC[C@@H]3CCCO3)nc3c2CN(Cc2c(F)cccc2OC)C3)C[C@@H]1CC#N | KRAS 4B G12C protein (Homo sapiens, UniProt P01116, G12C) | 3% |
| C=CC(=O)N1CCN(c2nc(OC[C@@H]3CCCN3C)nc3c2CN(C2COc4ccccc42)C3)C[C@@H]1CC#N (some centres unmarked) | KRAS 4B G12C protein (Homo sapiens, UniProt P01116, G12C) | 59% |
| C=CC(=O)N1CCN(c2nc(OC[C@@H]3CCCN3C)nc3c2C(C(F)(F)F)N(Cc2ccccc2)C3)C[C@@H]1CC#N (some centres unmarked) | KRAS 4B G12C protein (Homo sapiens, UniProt P01116, G12C) | 0%/ 0% |
| C=CC(=O)N1CCN(c2nc(OC[C@@H]3CCCN3C)nc3c2CN(C2CC(C)(C)c4ccccc42)C3)C[C@@H]1CC#N (some centres unmarked) | KRAS 4B G12C protein (Homo sapiens, UniProt P01116, G12C) | 63% |
| C=CC(=O)N1CCN(c2nc(OC[C@@H]3CCCN3C)nc3c2CN(Cc2c(F)cccc2OC(F)F)C3)C[C@@H]1CC#N | KRAS 4B G12C protein (Homo sapiens, UniProt P01116, G12C) | 96% |

List reported CAF (10 minutes/60 minutes) at 10 micromolar: 10 minutes for each of these molecules:
1. C=CC(=O)N1CCN(c2nc(OC[C@@H]3CCCN3C)nc3c2CN(Cc2c(C)cccc2O)C3)C[C@@H]1CC#N
2. C=CC(=O)N1CCN(c2nc(OC[C@@H]3CCCN3CC)nc3c2CN(C2CCc4ccccc42)C3)C[C@@H]1CC#N (some centres unmarked)
3. C=CC(=O)N1CCN(c2nc(OC[C@@H]3CCCN3C)nc3c2CN(C2CC(C)(C)c4ccc(O)cc42)C3)C[C@@H]1CC#N (some centres unmarked)
4. C=CC(=O)N1CCN(c2nc(OC[C@@H]3CCCN3C3CC(=O)C3)nc3c2CN(C2CCc4ccccc42)C3)C[C@@H]1CC#N (some centres unmarked)
5. C=CC(=O)N1CCN(c2nc(OC[C@@H]3CCCN3C)nc3c2CN(Cc2cc(O)c(Cl)cc2Cl)C3)C[C@@H]1CC#N

["78%", "60%", "32%/ 32%", "0%", "52%"]

List reported CAF (10 minutes/60 minutes) at 10 micromolar: 10 minutes for each of these molecules:
1. C=CC(=O)N1CCN(c2nc(OC[C@@H]3CCCN3C3CC3)nc3c2CN(C2CCc4ccccc42)C3)C[C@@H]1CC#N (some centres unmarked)
2. C=CC(=O)N1CCN(c2nc(OC[C@@H]3CCCN3C)nc3c2CN(C2CCc4ccccc42)C3)CC1 (some centres unmarked)
3. C=CC(=O)N1CCN(c2nc(OC[C@@H]3C[C@H](F)CN3C)nc3c2CN(C2CCc4ccccc42)C3)C[C@@H]1CC#N (some centres unmarked)

["15%", "6%", "52%"]
